test: Cytosolic clearance in human liver cytosol; assay type: in vitro ADME; conditions: 0.5 μM compound, 1 mg/ml human liver cytosol, 37° C., pH 7.5; read-out: human cytCL (cytosolic clearance)
Please go through the items and note down their microsomal CLint at 0.5 μM.

Quick one: microsomal CLint at 0.5 μM for CONC(=O)C(=O)C(Cc1ccccc1)NC(=O)c1cccnc1-c1csc(-c2ccccc2)n1 (centres unmarked) ?
< 14 µL/min/mg

Next compound up: O=C(NC1CC1)C(=O)C(Cc1ccccc1)NC(=O)c1cccnc1-c1csc(-c2ccccc2)n1 (centres unmarked)
< 14 µL/min/mg

###

Please go through the items and note down their microsomal CLint at 0.5 μM.
test: Cytosolic clearance in cynomolgus monkey liver cytosol; type: in vitro ADME; conditions: female; 0.5 μM compound, 1 mg/ml cynomolgus monkey liver cytosol, 37° C., pH 7.5; read-out: cyno cytCL (cytosolic clearance)

Quick one: microsomal CLint at 0.5 μM for CONC(=O)C(=O)C(Cc1ccccc1)NC(=O)c1cccnc1-c1csc(-c2ccccc2)n1 (centres unmarked) ?
< 18 µL/min/mg

Next compound up: O=C(NC1CC1)C(=O)C(Cc1ccccc1)NC(=O)c1cccnc1-c1csc(-c2ccccc2)n1 (centres unmarked)
< 18 µL/min/mg

###

biological target: calpain-1 isolated from human erythrocytes (Homo sapiens, UniProt P07384); construct: 20 nM calpain-1-isolated from human erythrocytes (Calbiochem #208713); assay: Calpain I enzyme inhibition in vitro, kinetic fluorescence assay; conditions: apparent Ki calculated from IC50 by Cheng-Prussoff; 100 μM Suc-Leu-Tyr-AMC, pH 7.3, room temperature
Sequence (P07384 whole entry): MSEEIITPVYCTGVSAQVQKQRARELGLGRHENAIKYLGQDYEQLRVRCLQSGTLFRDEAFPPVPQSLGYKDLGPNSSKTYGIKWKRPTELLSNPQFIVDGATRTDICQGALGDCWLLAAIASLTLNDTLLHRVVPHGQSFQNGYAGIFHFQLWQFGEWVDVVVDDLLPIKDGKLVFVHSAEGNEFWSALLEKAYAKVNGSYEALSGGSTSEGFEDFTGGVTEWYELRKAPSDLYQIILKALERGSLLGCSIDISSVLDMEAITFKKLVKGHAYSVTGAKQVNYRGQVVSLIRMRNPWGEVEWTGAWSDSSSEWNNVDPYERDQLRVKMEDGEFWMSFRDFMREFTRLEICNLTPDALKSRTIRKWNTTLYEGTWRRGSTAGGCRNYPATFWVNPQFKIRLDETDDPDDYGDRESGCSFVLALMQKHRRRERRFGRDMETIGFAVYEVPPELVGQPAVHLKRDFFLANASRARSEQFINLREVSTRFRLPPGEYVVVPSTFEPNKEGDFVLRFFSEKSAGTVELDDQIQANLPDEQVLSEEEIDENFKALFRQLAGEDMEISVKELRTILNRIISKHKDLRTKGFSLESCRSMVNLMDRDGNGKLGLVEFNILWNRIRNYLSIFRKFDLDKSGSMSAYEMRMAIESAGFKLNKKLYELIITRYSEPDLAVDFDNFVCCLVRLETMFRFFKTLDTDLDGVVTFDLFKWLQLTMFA
Sequence (P04632 whole entry partner): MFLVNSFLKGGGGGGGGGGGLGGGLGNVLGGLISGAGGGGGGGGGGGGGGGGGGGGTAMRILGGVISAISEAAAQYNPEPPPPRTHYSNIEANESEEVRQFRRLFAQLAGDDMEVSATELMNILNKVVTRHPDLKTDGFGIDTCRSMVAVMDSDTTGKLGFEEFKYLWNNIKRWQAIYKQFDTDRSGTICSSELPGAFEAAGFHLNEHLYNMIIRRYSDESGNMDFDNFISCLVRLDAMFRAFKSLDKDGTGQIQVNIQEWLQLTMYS
Readout Name: Ki

Quick one: Ki for NC(=O)C(=O)C(Cc1ccccc1)NC(=O)c1cccnc1-c1nc2ccccc2o1 (stereo not drawn) [Example 16] ?
100 to 300 nM

Next compound up: NC(=O)C(=O)C(Cc1ccccc1)NC(=O)c1cccnc1-c1nc2ccccc2s1 (stereo not drawn) [Example 3]
40 to 100 nM

Next compound up: NC(=O)C(=O)C(Cc1ccccc1)NC(=O)c1cccnc1-c1csc(-c2ccc(F)cc2)n1 (stereo not drawn) [Example 5]
40 to 100 nM

Next compound up: NC(=O)C(=O)C(Cc1ccccc1)NC(=O)c1cccnc1-c1csc(-c2ccc3ccccc3c2)n1 (stereo not drawn) [Example 9]
40 to 100 nM

Next compound up: NC(=O)C(=O)C(Cc1ccccc1)NC(=O)c1cccnc1-c1csc(-c2cccc(C(F)(F)F)c2)n1 (stereo not drawn) [Example 6]
≤ 40 nM

Next compound up: NC(=O)C(=O)C(Cc1ccc(F)cc1)NC(=O)c1cccnc1-c1csc(-c2ccccc2)n1 (stereo not drawn) [Example 15]
40 to 100 nM

Next compound up: NC(=O)C(=O)C(Cc1ccccc1)NC(=O)c1cccnc1-c1nc(-c2ccc(F)cc2)cs1 (stereo not drawn) [Example 4]
40 to 100 nM

Next compound up: NC(=O)C(=O)C(Cc1ccccc1)NC(=O)c1cccnc1-c1csc(-c2ccccc2)n1 (stereo not drawn) [Example 7]
≤ 40 nM

Next compound up: NC(=O)C(=O)C(Cc1ccccc1)NC(=O)c1cccnc1-c1ncc(-c2ccccc2)[nH]1 (stereo not drawn) [Example 2]
100 to 300 nM

Next compound up: CONC(=O)C(=O)C(Cc1ccccc1)NC(=O)c1cccnc1-c1csc(-c2ccccc2)n1 (stereo not drawn) [Example 14]
100 to 300 nM

Next compound up: NC(=O)C(=O)C(Cc1ccccc1)NC(=O)c1cccnc1-c1csc(-c2ccccc2Cl)n1 (stereo not drawn) [Example 8]
≤ 40 nM

Next compound up: O=C(NC1CC1)C(=O)C(Cc1ccccc1)NC(=O)c1cccnc1-c1csc(-c2ccccc2)n1 (stereo not drawn) [Example 13]
100 to 300 nM

Origin of the recorded values: patent US9567325B2
